Test system: MDA-MB-468
Assay: NCI-60 cell line panel: MDA-MB-468
Type: cell-based
Conditions: Breast Cancer, total growth inhibition
Returns one of 1 or 0; 1 when TGI is >= 2 µM.

Answered examples (3):
Inquiry: State whether the measured TGI reaches 2 µM, counting equality as reaching it, for CC(C)NC(=O)c1cc(-c2ccc(NC(=O)Nc3ccc(N4CCN(C)CC4)c(C(F)(F)F)c3)cc2)nc2cccnc12 [Compound 13e]
Reply text: 0

Inquiry: Same question for CNC(=O)c1cc(-c2ccc(NC(=O)Nc3ccc(N4CCN(C)CC4)c(C(F)(F)F)c3)cc2)nc2cccnc12 [Compound 13b] please.
Reply text: 1

Inquiry: Same question for CCN1CCN(c2ccc(NC(=O)Nc3ccc(-c4cc(C(=O)NC(C)C)c5ncccc5n4)cc3)cc2C(F)(F)F)CC1 [Compound 13f] please.
Reply text: 0

---
Inquiry: State whether the measured TGI reaches 2 µM, counting equality as reaching it, for CCN1CCN(c2ccc(NC(=O)Nc3ccc(-c4cc(C(=O)NC)c5ncccc5n4)cc3)cc2C(F)(F)F)CC1 [Compound 13c]
Reply text: 1

Inquiry: Same question for CNC(=O)c1cc(Oc2ccc(NC(=O)Nc3ccc(Cl)c(C(F)(F)F)c3)cc2)ccn1 [Sorafenib, reference compound] please.
Reply text: 1
